Here the recorded relative binding ratio is given for each entry.
Assayed Target: T1, Soluble CDCP1 extracellular domain (CDCP1-ECD) (SEQ ID NO:30) fused to Streptavidin Binding Protein (SBP) (human, UniProt Q9H5V8 30-663)
T1 construct: also called SBP-CDCP1-ECD
T1 sequence: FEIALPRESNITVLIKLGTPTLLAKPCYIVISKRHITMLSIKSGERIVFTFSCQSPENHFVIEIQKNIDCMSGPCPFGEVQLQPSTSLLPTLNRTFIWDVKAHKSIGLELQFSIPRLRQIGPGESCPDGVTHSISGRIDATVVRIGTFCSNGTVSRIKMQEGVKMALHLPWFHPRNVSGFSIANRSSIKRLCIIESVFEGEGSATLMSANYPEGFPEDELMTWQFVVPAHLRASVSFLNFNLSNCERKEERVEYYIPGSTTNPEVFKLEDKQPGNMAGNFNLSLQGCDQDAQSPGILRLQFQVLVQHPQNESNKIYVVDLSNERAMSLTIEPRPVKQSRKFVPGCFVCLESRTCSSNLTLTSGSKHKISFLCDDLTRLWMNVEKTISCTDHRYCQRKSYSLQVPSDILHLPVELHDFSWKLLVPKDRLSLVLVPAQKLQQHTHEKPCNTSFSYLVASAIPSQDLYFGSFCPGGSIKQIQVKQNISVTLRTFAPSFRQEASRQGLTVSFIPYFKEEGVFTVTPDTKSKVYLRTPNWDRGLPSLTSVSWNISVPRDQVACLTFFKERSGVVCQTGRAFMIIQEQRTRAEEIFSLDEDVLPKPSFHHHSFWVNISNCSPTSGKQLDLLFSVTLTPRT
Test Protocol: ELISA on captured SBP-CDCP1-ECD, ratio relative to chimeric CUB4 (chHC4)

Ask: Please supply the value of reported relative binding ratio for the item hHC4-K2 / hLC4-M (antibody, V domains shown) VH: EVQLVESGGGLVKPGGSLRLSCAASGFTFNSYGMSWVRQAPGKGLEWVSSISSGGSYTYYADSVKGRFTISRDNAKNSLYLQMNSLRAEDTAVYYCARHPDYDGVWFAYWGQGTLVTVSS VL: EIVLTQSPATLSLSPGERATMSCGASSSVFYLHWYQQKPGLAPRLWIYDTSKLASGIPDRFSGSGSGTDFTLTISRLEPEDFAVYYCQQWNSNPPTFGGGTKVEIK
Result: 0.28

Ask: Please supply the value of reported relative binding ratio for the item hHC4-a / hLC4-d (antibody, V domains shown) VH: EVQLVESGGGLVKPGGSLRLSCAASGFTFNSYGMSWVRQAPGKGLEWVSTISSGGSYTYYPDSVKGRFTISRDNAKNSLYLQMNSLRAEDTAVYYCARHPDYDGVWFAYWGQGTLVTVSS VL: EIVMTQSPATLSVSPGERATLSCSVSSSVFYVHWYQQKPGQAPRLLIYDTSKLASGIPARFSGSGSGTEYTLTISSLQSEDFAVYYCQQWNSNPPTFGGGTKVEIK
Result: 0.28

Next, consider the following binder.
Ask: Please supply the value of reported relative binding ratio for the item hHC4-a / hLC4-e (antibody, V domains shown) VH: EVQLVESGGGLVKPGGSLRLSCAASGFTFNSYGMSWVRQAPGKGLEWVSTISSGGSYTYYPDSVKGRFTISRDNAKNSLYLQMNSLRAEDTAVYYCARHPDYDGVWFAYWGQGTLVTVSS VL: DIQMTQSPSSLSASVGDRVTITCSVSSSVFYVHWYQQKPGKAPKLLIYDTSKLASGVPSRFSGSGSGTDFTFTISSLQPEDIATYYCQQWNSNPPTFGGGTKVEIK
Result: 0.46
